These entries and their values trace back to the supplement of paper PMC10567573.

B1: PDZK1 (parent)
chain: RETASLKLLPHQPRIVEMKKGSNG

Variants of: B1
experimental.protocol: protein stability index of a GFP-peptide fusion (GPS, HEK-293T) (PSI 1-6); higher = more stable;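 also: lentivirally expressed fusions sorted by FACS into six bins by GFP to DsRed ratio, PSI derived from sequencing read proportions per bin multiplied by bin number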
experimental.setup: c terminus: a fixed tail appended
Records here are stratified by protein stability index; strata: bucket A: < 3; bucket B: ≥ 3 and < 4; bucket C: ≥ 4

{"columns": ["mutation.label", "qualitative.label"],
 "data": [
  ["E17V", "bucket B"],
  ["E2I", "bucket A"],
  ["L8K", "bucket B"],
  ["K20W", "bucket A"],
  ["T3I", "bucket B"],
  ["Q12T", "bucket B"],
  ["G21L", "bucket A"],
  ["K20G", "bucket C"],
  ["S22G", "bucket C"],
  ["E17Y", "bucket A"],
  ["L9V", "bucket B"],
  ["L6T", "bucket B"],
  ["E2P", "bucket B"],
  ["S5V", "bucket B"],
  ["M18E", "bucket C"],
  ["V16Y", "bucket B"],
  ["E17T", "bucket B"],
  ["P10F", "bucket A"],
  ["P13M", "bucket B"],
  ["E17W", "bucket A"],
  ["P10D", "bucket B"],
  ["T3Q", "bucket B"],
  ["R1G", "bucket A"],
  ["E17L", "bucket A"],
  ["H11T", "bucket B"],
  ["G24K", "bucket C"],
  ["K19L", "bucket A"],
  ["I15R", "bucket C"],
  ["S5Q", "bucket B"],
  ["N23R", "bucket C"],
  ["P10M", "bucket A"],
  ["R1E", "bucket B"]
]}
